System: WM1552C (Melanoma);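 further: after 72 h of two-drug dosing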
TEST DETAILS: Bliss excess, mean over the matrix (fraction); higher = more synergy
PROPERTY LABEL: Bliss excess
Give the value as a plain number.

Worked cases, answers included:
[
  {
    "COMPOUND": "O=C(c1cc(Cc2n[nH]c(=O)c3ccccc23)ccc1F)N1CCN(C(=O)C2CC2)CC1 [Olaparib] + Cc1c2c(nn1C)CSCc1cc(n(C)n1)CSc1cc(c3ccccc3c1)OCCCc1c(C(=O)O)n(C)c3c-2c(Cl)ccc13 [AZD5991] (first compound max 10 µM, 7x7, partner max 1 µM)",
    "PROPERTY LABEL": "Bliss excess",
    "EXPERIMENTAL RESULT": 0.0329
  },
  {
    "COMPOUND": "CN(C)CCCOc1ccc(-c2ccc3ncc4c(c3c2)n(C2CCOCC2)c(=O)n4C)cn1 [AZD0156] + O=C(c1cc(Cc2n[nH]c(=O)c3ccccc23)ccc1F)N1CCN(C(=O)C2CC2)CC1 [Olaparib] (first compound max 3 µM, partner max 3 µM)",
    "PROPERTY LABEL": "Bliss excess",
    "EXPERIMENTAL RESULT": 0.0213
  }
]

# input for lookup
[in] Give the measured Bliss excess of CC1(C)CCC(CN2CCN(c3ccc(C(=O)NS(=O)(=O)c4ccc(NCC5CCOCC5)c([N+](=O)[O-])c4)c(Oc4cnc5[nH]ccc5c4)c3)CC2)=C(c2ccc(Cl)cc2)C1 [Venetoclax] + COc1cc(Nc2ncc3c(n2)-c2ccc(Cl)cc2C(c2c(F)cccc2OC)=NC3)ccc1C(=O)O [Alisertib] (first compound max 1 µM, 7x7, partner max 10 µM) .
[out] -0.0613
